MEASURED ENDPOINT: melting point

Provide reported melting point for each item, in the same order as listed.
1. CC(=O)OCC1OC(OC2C(COC(C)=O)OC(OC3C(COC(C)=O)OC(OCCBr)C(N4C(=O)c5ccccc5C4=O)C3OC(C)=O)C(OC(C)=O)C2OC(C)=O)C(OC(C)=O)C(OC(C)=O)C1OC(C)=O (stereo not drawn)
2. FC(F)(F)C(F)(F)C(F)(F)C(F)(F)C(F)(F)C(F)(F)c1nc2c(Br)sc(Br)c2nc1C(F)(F)C(F)(F)C(F)(F)C(F)(F)C(F)(F)C(F)(F)F
3. Cc1cc(CCC(=O)OCC(COC(=O)CCc2cc(C)c(O)c(C(C)(C)C)c2)(COC(=O)CCc2cc(C)c(O)c(C(C)(C)C)c2)COC(=O)CCc2cc(C)c(O)c(C(C)(C)C)c2)cc(C(C)(C)C)c1O

1. 227 to 229 °C
2. 46 to 47 °C
3. 45 to 55 °C

====

Exercise: for every item that follows, state its recorded melting point.

CC(C)c1ccc(S(=O)(=O)OC(c2cc(C(OS(=O)(=O)c3ccc(C(C)C)cc3)(C(F)(F)F)C(F)(F)F)cc(C(OS(=O)(=O)c3ccc(C(C)C)cc3)(C(F)(F)F)C(F)(F)F)c2)(C(F)(F)F)C(F)(F)F)cc1    105 °C
Nc1n[nH]cc1C(=O)O    135 °C
CCCCCCCCCCCCCCCCCCOc1cc(OCCCOc2ccccc2)cc(N(CC(=O)OCc2ccccc2)CC(=O)OCc2ccccc2)c1    59 to 61 °C

Provide reported melting point for each item, in the same order as listed.
1. C=C(C)[C@@H]1CC[C@]2(C(=O)N[C@@H]3C[C@H](C(=O)OCc4ccccc4)C3(C)C)CC[C@]3(C)[C@H](CC[C@@H]4[C@@]5(C)CC[C@H](OC(=O)CC(C)(C)C(=O)O)C(C)(C)[C@@H]5CC[C@]43C)[C@@H]12
2. CCc1nc(OC)c(NC(=O)N2CCN(c3cc(Cl)cc(Cl)c3)CC2)cc1C(=O)NC(C)C(=O)Nc1cc(CO)cc(Nc2c3ccccc3nc3ccccc23)c1 (stereo not drawn)

64.7 to 100 °C
184 to 186 °C

For every record below, what is its melting point?
1. COC(=O)c1cc(C(C)(C)C)c(OP2OP(Oc3c(C(C)(C)C)cc(C(=O)OC)cc3C(C)(C)C)OP(Oc3c(C(C)(C)C)cc(C(=O)OC)cc3C(C)(C)C)O2)c(C(C)(C)C)c1 (stereo not drawn)
2. CC(CCCCCCCCCCCCc1scc(Br)c1Br)C(=O)C(C)CCCCCCCCCCCCc1scc(Br)c1Br (stereo not drawn)
3. O=C(Oc1ccc2c(OC(=O)c3ccc(OCc4ccccc4)c(Cl)c3)c3ccccc3cc2c1OC(=O)c1ccc(OCc2ccccc2)c(Cl)c1)c1ccc(OCc2ccccc2)c(Cl)c1
4. [C-]#[N+]C(C)C(=O)NCC1CC2CC(C1C)C2(C)C (stereo not drawn)
5. CC(C)(C)c1cc(C(=O)OCCN(CCOC(=O)c2cc(C(C)(C)C)c(O)c(C(C)(C)C)c2)C(=O)c2cc(C(C)(C)C)c(O)c(C(C)(C)C)c2)cc(C(C)(C)C)c1O
6. CC#CCOc1ccc(S(=O)(=O)C(C(=O)NO)C2CCCCC2)cc1 (stereo not drawn)

1: 185 to 200 °C; 2: 50 to 52 °C; 3: 106 to 109 °C; 4: 58 to 59 °C; 5: 200 to 202 °C; 6: 191 °C

State recorded melting point for all listed molecules.
1. COc1ccc2c(c1)c(CC(=O)NCC(C)(C)SN=O)c(C)n2C(=O)c1ccc(Cl)cc1
2. [C-]#[N+]CCCS(=O)(=O)c1ccc(C)cc1

1. 177 to 178 °C
2. 37 to 38 °C
